A short record of Binding affinity observed with Estrogen receptor (Rattus norvegicus) (UniProt P06211+Q62986) follows.
Value Type: Binding affinity

a = CC/C(=C(\c1ccc(I)cc1)c1ccc(OCCCCCCCCN2CCCC2)cc1)c1ccccc1
b = CC/C(=C(\c1ccc(I)cc1)c1ccc(OCCCCCN(C)C)cc1)c1ccccc1
Ask: Lower Binding affinity: a or b ? Answer = label.
Result: a

----------
Biological target: Phosphodiesterase 1 (Homo sapiens, UniProt P54750+Q01064+Q14123)
Experiment: Antagonistic potency against calmodulin-dependent cyclic AMP phosphodiesterase relative to 4-Iodotamoxifen
Assay type: functional
Settings: Canis lupus familiaris
Value Type: Relative potency

| Item Smiles | Relative potency |
| --- | --- |
| CC/C(=C(\c1ccc(I)cc1)c1ccc(OCCCCCN(C)C)cc1)c1ccccc1 | 3.8 |
| CC/C(=C(\c1ccc(I)cc1)c1ccc(OCCCN(C)C)cc1)c1ccccc1 | 1.2 |
| CC/C(=C(\c1ccc(I)cc1)c1ccc(OCCCCCCCCCCN(C)C)cc1)c1ccccc1 | 1.9 |

A = CC/C(=C(\c1ccc(I)cc1)c1ccc(OCCCCN(C)C)cc1)c1ccccc1
B = CC/C(=C(\c1ccc(I)cc1)c1ccc(OCCCCCCCCN(C)C)cc1)c1ccccc1
Ask: Endpoint returns the identifier whose Relative potency is numerically larger, either A or B . Answer = label.
Result: B

A = CC/C(=C(\c1ccc(I)cc1)c1ccc(OCCN(C)C)cc1)c1ccccc1
B = CC/C(=C(\c1ccc(I)cc1)c1ccc(OCCCCCCN(C)C)cc1)c1ccccc1
Ask: Lower Relative potency: A or B ? Answer = label.
Result: A
(A: 1, B: 5.8)
